Tested on: OVCAR-3
experiment.summary: NCI tumour cell line growth inhibition, 48 h
Where a name gives a salt, the structure may show the parent alone. Active and inactive are the calls of the source. Cut-off read from the data, not from the text of the source: active = GI50 up to about 1.1 µM and inactive = higher.
Classes used: 1 (yes) = active, 0 (no) = inactive

molecule: COC(=O)C12C3C4C1C1C2C3C41I (stereo unspecified)
class.assignment: 0 (no)

molecule: COC1OC2COC1(OCc1ccccc1)C1OC(C)(C)OC21 (stereo unspecified)
class.assignment: 0 (no)

molecule: CC[C@]12C=CCN3CCC4(c5cc([C@@]6(C(=O)OC)CC7CN(CCc8c6[nH]c6ccccc86)C[C@@H]6CCC[C@H]76)c(OC)cc5N(C)C4[C@](O)(C(=O)OC)C1OC(C)=O)C32 (stereo partly specified)
class.assignment: 1 (yes)

molecule: O=C(CC(C(=O)c1cccs1)c1ccsc1)c1cccs1 (stereo unspecified)
class.assignment: 0 (no)

molecule: NC(Cc1ccc(O)cn1)C(=O)O (stereo unspecified)
class.assignment: 0 (no)

molecule: N#CC(C(=O)CCC(=O)Nc1cccc(C(F)(F)F)c1)c1ccccc1 (stereo unspecified)
class.assignment: 0 (no)

molecule: CCOC(=O)NC(Nc1ncn(C(NC(=O)OCC)(C(F)(F)F)C(F)(F)F)n1)(C(F)(F)F)C(F)(F)F
class.assignment: 0 (no)

molecule: Cc1ccc(/C=N/n2c(-c3ccc(C)cc3)n[nH]c2=O)cc1
class.assignment: 0 (no)

molecule: CCOC(=O)C[C@@H](C)[C@]1(C(=O)OC)CCCC1=O
class.assignment: 0 (no)

molecule: CCCCC(=O)Nc1ccc2c(C)cc(-c3ccc(-c4cc(-c5ccc(C)cc5)cc(-c5ccc(-c6cc(C)c7ccc(NC(=O)CCCC)nc7n6)cc5)n4)cc3)nc2n1
class.assignment: 0 (no)

molecule: C[n+]1ccc2/c(=C\C#N)c3ccccc3n21
class.assignment: 0 (no)

molecule: CCc1cc(Cc2cc(Cl)c(NC(=O)C(=O)C3NC(=O)NC3=O)c(CC)c2)cc(Cl)c1NC(=O)C(=O)C1NC(=O)NC1=O (stereo unspecified)
class.assignment: 0 (no)

molecule: Cc1ccc(S(=O)(=O)N2CCCCC2CCO)cc1 (stereo unspecified)
class.assignment: 0 (no)

molecule: Nc1ncc(Cl)c(NCC2(CO)CC(CCc3ccccc3)C2)n1 (stereo unspecified)
class.assignment: 0 (no)

molecule: Cc1cc(N)c2ccccc2[n+]1CCCCCCCCCCNc1cc(C)[n+](CCCCCCCCCC[n+]2c(C)cc(N)c3ccccc32)c2ccccc12
class.assignment: 0 (no)

molecule: O=C(O)c1cccc(S(=O)(=O)NCCO)c1
class.assignment: 0 (no)

molecule: C=C1C(=O)OC2C3C(=C)[C@@H](OC(C)=O)CC3C(C)=CC(OC(=O)C(C)(O)C(C)OC(C)=O)[C@@H]12 (stereo partly specified)
class.assignment: 0 (no)

molecule: CC(C)(C)OC(=O)N1CC(C)(C)N2C(=O)C3(CCCO3)C12 (stereo unspecified)
class.assignment: 0 (no)

molecule: CN1CCC(CN2c3ccccc3Sc3ccccc32)C1 (stereo unspecified) [METHDILAZINE HYDROCHLORIDE]
class.assignment: 0 (no)

molecule: CC1=CC2CCC1(C)C/C2=C(/C)OC=O (stereo unspecified)
class.assignment: 0 (no)

molecule: NC1CCCCC1.O=P(O)(O)C1(P(=O)(O)O)CC1
class.assignment: 0 (no)

molecule: C=C(C=O)CCCC(C)[C@@H]1CCC23CC12CCC1[C@@]2(C)CCC(OC(C)=O)C(C)(C)C2CC(OC2OC(COC(C)=O)C(O)C(O)C2O)[C@]13C (stereo partly specified)
class.assignment: 0 (no)

molecule: CN/C(=N\n1cnnc1)OC
class.assignment: 0 (no)

molecule: Nc1ncnc2c1ncn2C1CC(OC2CCCCO2)C(CO)O1 (stereo unspecified)
class.assignment: 0 (no)

molecule: COC(=O)[C@@H]1C(=O)O[C@@H](c2ccc(OC)c(OC)c2OC)[C@@H]1C(=O)OC.COC(=O)[C@H]1C(=O)O[C@@H](c2ccc(OC)c(OC)c2OC)[C@@H]1C(=O)OC
class.assignment: 0 (no)

molecule: c1ccc(SC(CCCCOC2CCCCO2)Sc2ccccc2)cc1 (stereo unspecified)
class.assignment: 0 (no)

molecule: O=C(O)CSSCC(=O)O
class.assignment: 0 (no)

molecule: COc1ccc(-c2c(C#N)c(-c3ccc(C)cc3)n(NS(=O)(=O)c3ccccc3)c(=O)c2C#N)cc1
class.assignment: 0 (no)

molecule: CN(C(=O)c1ccccc1)c1ccc2c(c1)C(=O)c1ccccc1C2=O
class.assignment: 0 (no)

molecule: CC(=O)C(CN1CCOCC1)C(c1ccccc1)c1c(O)c2ccccc2oc1=O (stereo unspecified)
class.assignment: 0 (no)

molecule: CCOC(=O)CCC(NC(=O)c1ccc(CNc2nc3ccccc3nc2C(=O)OCC)cc1)C(=O)OCC (stereo unspecified)
class.assignment: 0 (no)

molecule: O=C1OC2(CC1C1(O)C3CC4CC(C3)CC1C4)C1CC3CC(C1)CC2C3 (stereo unspecified)
class.assignment: 0 (no)

molecule: NCCCNC(=O)c1csc(NC(=O)c2csc(NC(=O)CCCN)n2)n1
class.assignment: 0 (no)

molecule: O=C(O)CCSCc1ccc(I)cc1
class.assignment: 0 (no)

molecule: c1ccc(C2=NOC3C4CCC(C4)C23)cc1 (stereo unspecified)
class.assignment: 0 (no)

molecule: COC(=O)C(=O)C(C(=O)C(N)=O)c1nc2ccc(C(=O)c3ccccc3)cc2nc1O (stereo unspecified)
class.assignment: 0 (no)
